Target: FKBP12 (Homo sapiens, UniProt P62942)
Construct: His-tag (HRV 3C cleavable) (cleaved yes); made in house; host or cells: Escherichia coli BL21(DE3)
Sequence (P62942 whole entry): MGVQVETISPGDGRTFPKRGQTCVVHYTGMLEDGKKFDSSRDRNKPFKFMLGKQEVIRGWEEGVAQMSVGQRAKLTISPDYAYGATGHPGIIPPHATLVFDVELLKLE
Test: Competition fluorescence polarization assay with FITC-rapamycin tracer
Assay type: binding
readout type: Kd
Give me the value, and tack the unit on after it.

- CO[C@H]1C[C@@H](C)C/C(C)=C/[C@@H](CCCSC[C@H](N)C(=O)O)C(=O)C[C@H](O)[C@@H](C)[C@@H](/C(C)=C/[C@@H]2CC[C@@H](O)[C@H](OC)C2)OC(=O)[C@@H]2CCCCN2C(=O)C(=O)[C@]2(O)O[C@H]1[C@@H](OC)C[C@H]2C: 8.7 nM
- CO[C@H]1C[C@@H](C)C/C(C)=C/[C@@H](CCCc2ccncc2)C(=O)C[C@H](O)[C@@H](C)[C@@H](/C(C)=C/[C@@H]2CC[C@@H](O)[C@H](OC)C2)OC(=O)[C@@H]2CCCCN2C(=O)C(=O)[C@]2(O)O[C@H]1[C@@H](OC)C[C@H]2C: 1.5 nM
- CO[C@H]1C[C@@H](C)C/C(C)=C/[C@@H](CCCC(=O)Nc2ccccn2)C(=O)C[C@H](O)[C@@H](C)[C@@H](/C(C)=C/[C@@H]2CC[C@@H](O)[C@H](OC)C2)OC(=O)[C@@H]2CCCCN2C(=O)C(=O)[C@]2(O)O[C@H]1[C@@H](OC)C[C@H]2C: 0.2 nM

# ---- query compound ----
For record `CO[C@H]1C[C@@H](C)C/C(C)=C/[C@@H](CCCC(=O)O)C(=O)C[C@H](O)[C@@H](C)[C@@H](/C(C)=C/[C@@H]2CC[C@@H](O)[C@H](OC)C2)OC(=O)[C@@H]2CCCCN2C(=O)C(=O)[C@]2(O)O[C@H]1[C@@H](OC)C[C@H]2C` the listed Kd is 1.5 nM
